Test system: Vero E6 infected with SARS-CoV-2
test description: inhibition of SARS-CoV-2 cytopathic effect; higher = more antiviral protection, active = above 15
experimental parameters: 1 nM; 48 h
# inhibition of SARS-CoV-2 cytopathic effect per entry
Answer format: numeric, % implied, no suffix.

Please review the following examples before continuing.
I'd like to know its inhibition of SARS-CoV-2 cytopathic effect. The compound in question is NC[C@@H]1O[C@H](O[C@@H]2[C@@H](CO)OC(O[C@@H]3[C@@H](O)[C@H](N)C[C@H](N)[C@H]3OC3O[C@H](CN)[C@@H](O)[C@H](O)[C@H]3N)[C@@H]2O)[C@H](N)[C@@H](O)[C@@H]1O (stereo partly drawn) -1.31

Data request, read-out inhibition of SARS-CoV-2 cytopathic effect, for C/C(=N\NC(=S)N1CCC1)c1ccccn1 0.2

Fill blank: measured inhibition of SARS-CoV-2 cytopathic effect of the compound C=C1C(=O)O[C@@H]2[C@H]3C(C)=CC[C@@]34O[C@@]4(C)CC[C@@H]12 is ____. -2.02

Others:
Which inhibition of SARS-CoV-2 cytopathic effect is reported for this compound? Cc1nnc(NS(=O)(=O)c2ccc(N)cc2)s1 3.32

I would be grateful if you could share the reported inhibition of SARS-CoV-2 cytopathic effect for CC(C)(C)NC(=O)N[C@H](C(=O)N1C[C@H]2[C@@H]([C@H]1C(=O)NC(CC1CCC1)C(=O)C(N)=O)C2(C)C)C(C)(C)C (stereo partly drawn) . 0.22

Look up inhibition of SARS-CoV-2 cytopathic effect for this compound: CCOc1cc(C(C)(C)C)ccc1C1=N[C@@](C)(c2ccc(Cl)cc2)[C@@](C)(c2ccc(Cl)cc2)N1C(=O)N1CCN(CCCS(C)(=O)=O)CC1 -1.23

Given the compound CCOc1cncc(/C=C/CCNC)c1 , what is its reported inhibition of SARS-CoV-2 cytopathic effect? 0.97

Look up inhibition of SARS-CoV-2 cytopathic effect for this compound: CC(C)c1ccc(CC(=O)N2CCC[C@@H](c3cccc(OC(C)(C)C(=O)O)c3)C2)cc1 0.54

====

Test system: Vero E6 infected with SARS-CoV-2
test description: inhibition of SARS-CoV-2 cytopathic effect; higher = more antiviral protection, active = above 15
experimental parameters: 1 nM; 48 h
experimental endpoint: inhibition of SARS-CoV-2 cytopathic effect (%)
// note: answer is a bare numeric in %

Sample answers from the record:
Tell me the measured inhibition of SARS-CoV-2 cytopathic effect of CCCCCCOC(=O)CCC(=O)CN [hexaminolevulinate] , please. -0.29

Looking for the measured inhibition of SARS-CoV-2 cytopathic effect of CC(C)C[C@H](NC(=O)[C@@H](O)[C@H](N)Cc1ccccc1)C(=O)O , can you help? -0.51

Name the reported inhibition of SARS-CoV-2 cytopathic effect value associated with the compound COc1cc2c(cc1F)C(c1ccccc1Cl)=Nc1c(n[nH]c1C)N2 1.86

Requested read-out: inhibition of SARS-CoV-2 cytopathic effect. Entry: O=C(/C=C/c1c(C(=O)O)[nH]c2cc(Cl)cc(Cl)c12)Nc1ccccc1 -3.94

Field request: inhibition of SARS-CoV-2 cytopathic effect | item: COc1c(O[C@@H]2O[C@H](CO)[C@@H](O)[C@H](O)[C@H]2O)cc2c(c1OC)-c1ccc(SC)c(=O)cc1[C@@H](NC(C)=O)CC2 [thiocolchicoside] 0.08

Dear colleague, I am looking for the recorded inhibition of SARS-CoV-2 cytopathic effect of the following compound: C[C@@](Cc1ccc(O)c(O)c1)(NN)C(=O)O -5

Entry under review: CCOC(=O)c1ccc(N)cc1 . Reported inhibition of SARS-CoV-2 cytopathic effect? -3.23

So what does the record say about inhibition of SARS-CoV-2 cytopathic effect for Clc1ccc(C(c2ccccc2Cl)C(Cl)Cl)cc1 (centres undefined) ? -2.51

Further cases:
Entry CCOC(=O)[C@@H](N)Cc1ccc(O)c(O)c1 has what inhibition of SARS-CoV-2 cytopathic effect? 3.02

====

System: Vero E6 infected with SARS-CoV-2
test description: SARS-CoV-2 infection rate relative to infected DMSO; higher = more infection, active = 60 or less
experimental parameters: 24 h
Attribute: SARS-CoV-2 infection rate

Param item = Clc1cccc(-n2nnnc2NCc2ccccc2Oc2ccccn2)c1Cl (10 µM) ; retrieve measured SARS-CoV-2 infection rate. 110% (inactive)

Record request: SARS-CoV-2 infection rate value, item O=C(O)[C@H](Cc1c[nH]c2ccccc12)N1C(=O)c2ccccc2C1=O (10 µM) 115% (inactive)

I would be grateful if you could share the reported SARS-CoV-2 infection rate for CC#CCOC(=O)c1c(C)nc2sc3c(c2c1N)CCC(O)C3 (stereo not given) (10 µM) . 93% (inactive)

Which SARS-CoV-2 infection rate is reported for this compound? C[C@@H]1COCCN1c1cc(C2([S@](C)(=N)=O)CC2)nc(-c2ccnc3[nH]ccc23)n1 (0.833333 µM) 90% (inactive)

For the next question, use this compound.
Recorded SARS-CoV-2 infection rate for COCc1c(-c2ccc(NC(=O)Nc3cc(C(F)(F)F)ccc3F)c(F)c2)c2c(N)ncnn2c1CN1CCOCC1 (0.833333 µM) , please? 96.5% (inactive)

====

Tested on: Vero E6 infected with SARS-CoV-2
test description: SARS-CoV-2 infection rate relative to infected DMSO; higher = more infection, active = 60 or less
experimental parameters: 24 h
Overview of recorded SARS-CoV-2 infection rate for various compounds
Answer with a number only, understood to be in %.

Sample answers from the record:
Looking for the measured SARS-CoV-2 infection rate of COc1cc(S(C)(=O)=O)ccc1Nc1nc2ccc(-c3ccc(NC(=O)[C@H](C)c4ccc(F)cc4)cc3)cn2n1 (10 µM) , can you help? 105

Returns the measured SARS-CoV-2 infection rate for the input compound. Input: C[C@]1(COc2ccc(N3CCC(Oc4ccc(OC(F)(F)F)cc4)CC3)cc2)Cn2cc([N+](=O)[O-])nc2O1 [delamanid] (10 µM) 110

// query SARS-CoV-2 infection rate value for entry Cc1cnc(Nc2ccc(N3CCN(C)CC3)cc2)nc1Nc1cccc(S(=O)(=O)NC(C)(C)C)c1 (0.833333 µM) 122

Now consider the entry below.
So what does the record say about SARS-CoV-2 infection rate for O=P(O)(O)C(Cl)(Cl)P(=O)(O)O [clodronic-acid] (10 µM) ? 92

====

Recorded SARS-CoV-2 infection rate values for a group of molecules are listed next.
Tested on: Vero E6 infected with SARS-CoV-2
test description: SARS-CoV-2 infection rate relative to infected DMSO; higher = more infection, active = 60 or less
experimental parameters: 24 h
Report the value in % with no unit label.

Can you share its SARS-CoV-2 infection rate? I mean this molecule: N#Cc1ccnc(N2C(=O)CC[C@H]2C(=O)N(c2cncc(F)c2)[C@H](C(=O)NC2CC(F)(F)C2)c2ccccc2Cl)c1 [ivosidenib] (10 µM) 91.5

Any idea what SARS-CoV-2 infection rate was measured for CCCOc1ccc2[nH]cc(C3=CCNCC3)c2n1 (10 µM) ? 96

Name the recorded SARS-CoV-2 infection rate for Cc1cn([C@H]2O[C@@H](CO)[C@H](O)[C@H]2F)c(=O)[nH]c1=O [clevudine] (10 µM) . 107

Quick one: SARS-CoV-2 infection rate of O=C(O)C1CSCN1 (stereo not drawn) [timonacic] (10 µM) ? 110

For the molecule Cc1ccc(/N=C/N(C)/C=N/c2ccc(C)cc2C)c(C)c1 [amitraz] (10 µM) , what SARS-CoV-2 infection rate is on record? 106

Fill in the blank: the reported SARS-CoV-2 infection rate of COc1ccc(CNC(=O)c2cc(-c3cncc(C)c3)ncc2-c2nccs2)nc1OC (10 µM) is ____. 100

Next:
Report SARS-CoV-2 infection rate for CN1C(CSCC(F)(F)F)Nc2cc(Cl)c(S(N)(=O)=O)cc2S1(=O)=O (stereo not drawn) [polythiazide] (10 µM) please. 100

What does the data say about its SARS-CoV-2 infection rate? Entry: COc1cccc(CCc2ccccc2OCC(CN(C)C)OC(=O)CCC(=O)O)c1 (stereo not drawn) [sarpogrelate] (10 µM) 100

====

System: Vero E6 infected with SARS-CoV-2
test description: morphology score (similarity to uninfected cells); higher = more like uninfected cells
experimental parameters: 24 h
experimental endpoint: morphology score
Respond with the number and no other words.

Some molecules with recorded morphology score:
Can you look up morphology score on Vero E6 infected with SARS-CoV-2 for CSc1ccc(C(=O)N[C@@H]2CCCC[C@@H]2NC(=O)CNC(=O)c2cc(C(F)(F)F)ccc2NC(=O)NC(C)C)cc1 (10 µM) ? 0.07

Value wanted: morphology score (Vero E6 infected with SARS-CoV-2) of entry COc1cc(C(=O)NC2CCCNC2)cc(OC)c1OC (stereo not drawn) [troxipide] (10 µM) -0.014

More entries:
Give Vero E6 infected with SARS-CoV-2 morphology score for CCCCCCCCCCCCCCCC(=O)C(F)(F)F (10 µM) 0.158

Return morphology score measured with Vero E6 infected with SARS-CoV-2 given this molecule: C=CCc1ccc(O)c(-c2ccc(O)c(CC=C)c2)c1 [honokiol] (10 µM) 0.432

Observed morphology score on Vero E6 infected with SARS-CoV-2 for Cc1cccc(Nc2cc(Cl)nc(SCC(=O)O)n2)c1C [pirinixic-acid] (10 µM) , please. 0.0216

Please provide the recorded morphology score for CN1CCN(c2ncc(-c3cc(Cl)cc(Cl)c3Cl)c(N)n2)CC1 [sipatrigine] (10 µM) , tested on Vero E6 infected with SARS-CoV-2. 0.204

Lab request: please report morphology score under test system Vero E6 infected with SARS-CoV-2 for NCCCC[C@H](N[C@@H](CCc1ccccc1)C(=O)O)C(=O)N1CCC[C@H]1C(=O)O [lisinopril] (10 µM) 0.0957

What is its morphology score for Vero E6 infected with SARS-CoV-2? Entry: COc1ccc(S(=O)(=O)N2c3ccc(Cl)cc3[C@](O)(c3ccccc3Cl)[C@@H]2C(=O)N2CCC[C@H]2C(N)=O)cc1OC [relcovaptan] (10 µM) -0.0372

Data credit: the supplement of paper PMC13380429
